- Target desc: Recombinant human CES1 (CES1b/CES1A1) (Homo sapiens)
- Sequence (P23141 18-567): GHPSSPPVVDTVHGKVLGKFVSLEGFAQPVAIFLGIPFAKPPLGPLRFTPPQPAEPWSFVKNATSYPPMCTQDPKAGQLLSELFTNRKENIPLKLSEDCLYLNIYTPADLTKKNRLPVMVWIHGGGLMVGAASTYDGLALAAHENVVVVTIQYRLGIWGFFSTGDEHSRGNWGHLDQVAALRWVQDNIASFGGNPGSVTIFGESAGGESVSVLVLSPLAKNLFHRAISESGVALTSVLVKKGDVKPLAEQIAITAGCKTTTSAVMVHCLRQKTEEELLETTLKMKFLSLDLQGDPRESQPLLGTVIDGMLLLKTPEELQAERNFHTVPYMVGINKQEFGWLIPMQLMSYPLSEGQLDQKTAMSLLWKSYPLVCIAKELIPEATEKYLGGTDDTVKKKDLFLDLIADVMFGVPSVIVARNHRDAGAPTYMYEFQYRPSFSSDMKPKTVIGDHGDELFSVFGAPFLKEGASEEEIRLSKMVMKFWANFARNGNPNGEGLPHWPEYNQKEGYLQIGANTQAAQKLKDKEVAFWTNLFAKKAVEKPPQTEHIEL
- Experiment: In vitro inhibition of recombinant CES1
pIC50: −log10 of the molar value.
Observable: pIC50

1) C[C@H](CCC(=O)O)[C@H]1CC[C@H]2[C@@H]3[C@H](O)C[C@@H]4C[C@H](O)CC[C@]4(C)[C@H]3CC[C@]12C 4.87
2) C[C@H](CCC(=O)NCCS(=O)(=O)O)[C@H]1CC[C@H]2[C@@H]3[C@H](O)C[C@@H]4C[C@H](O)CC[C@]4(C)[C@H]3C[C@H](O)[C@]12C 4.71

Reference source for all entries: paper PMC6118295
